Where do the numbers come from? From ChEMBL document CHEMBL2311321.

assay: Inhibition of melanogenesis in mouse B16-4A5 cells at 100 uM after 72 hrs by spectrophotometry; type: functional; conditions: B16-4A5, 72 h
Binary call on inhibition at 100 µM: fulfilled from 80% upward, not fulfilled beneath that.

Input line: Given COc1cc2c3c(c1OC)-c1ccccc1C[C@H]3N(C)CC2 , state whether its inhibition at 100 µM is at least 80%.
Output line: fulfilled

Input line: Given CN1CCc2ccccc2C1Cc1ccccc1 (stereo not drawn) , state whether its inhibition at 100 µM is at least 80%.
Output line: not fulfilled

Input line: Given COc1cc2c3c(c1OC)-c1ccccc1C[C@H]3[N+](C)([O-])CC2 (stereo partly drawn) , state whether its inhibition at 100 µM is at least 80%.
Output line: fulfilled

Input line: Given COc1c(O)cc2c3c1-c1ccccc1C[C@H]3N(C)CC2 , state whether its inhibition at 100 µM is at least 80%.
Output line: fulfilled

Input line: Given COc1cc2c3c(c1OC)C1(C=CC(=O)C=C1)C[C@H]3N(C)CC2 , state whether its inhibition at 100 µM is at least 80%.
Output line: not fulfilled

Input line: Given COc1c(O)cc2c3c1-c1ccccc1C[C@@H]3NCC2 , state whether its inhibition at 100 µM is at least 80%.
Output line: not fulfilled

Input line: Given c1ccc2c(c1)CCNC2 [1,2,3,4-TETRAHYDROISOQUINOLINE] , state whether its inhibition at 100 µM is at least 80%.
Output line: not fulfilled

Input line: Given CN1CCc2ccccc2C1 , state whether its inhibition at 100 µM is at least 80%.
Output line: not fulfilled

Input line: Given COc1cc2c3c(c1OC)-c1ccccc1C[C@H]3NCC2 , state whether its inhibition at 100 µM is at least 80%.
Output line: fulfilled

Input line: Given OC[C@H]1O[C@@H](Oc2ccc(O)cc2)[C@H](O)[C@@H](O)[C@@H]1O , state whether its inhibition at 100 µM is at least 80%.
Output line: not fulfilled

* * *

test: Inhibition of melanogenesis in mouse B16-4A5 cells at 10 uM after 72 hrs by spectrophotometry; format: functional; conditions: B16-4A5, 72 h
Answer each item with its documented inhibition at 10 µM.
# value in %; strip the unit string

Value of measured inhibition at 10 µM for the entry COc1c(O)cc2c3c(cc4ccccc4c13)N(C)CC2 : 37.6

Value of measured inhibition at 10 µM for the entry COc1cc2c3c(c1OC)-c1ccccc1C[C@H]3N(C)CC2 : 32.1

Value of measured inhibition at 10 µM for the entry OC[C@H]1O[C@@H](Oc2ccc(O)cc2)[C@H](O)[C@@H](O)[C@@H]1O : 10.6

Value of measured inhibition at 10 µM for the entry COc1cc2c3c(cc4ccccc4c3c1OC)N(C)CC2 [DEHYDRONUCIFERINE] : 11.8

Value of measured inhibition at 10 µM for the entry CN1CCc2ccccc2C1Cc1ccccc1 (stereo unspecified) : 59.7

Value of measured inhibition at 10 µM for the entry c1ccc2c(c1)CCNC2 [1,2,3,4-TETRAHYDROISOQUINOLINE] : -54.2

Value of measured inhibition at 10 µM for the entry COc1cc2c3c(c1O)-c1ccccc1C[C@H]3N(C)CC2 : 27.3

Value of measured inhibition at 10 µM for the entry COc1cc2c3c(c1)-c1ccccc1CC3N(C)CC2 (stereo unspecified) : 76

Value of measured inhibition at 10 µM for the entry CN1CCc2ccccc2C1 : 9.4

Value of measured inhibition at 10 µM for the entry COc1cc2c(cc1OC)C(Cc1ccc(O)cc1)N(C)CC2 (racemic) : 34

Value of measured inhibition at 10 µM for the entry COc1c(O)cc2c3c1-c1ccccc1C[C@H]3N(C)CC2 : 37.9

* * *

assay: Cytotoxicity against mouse B16-4A5 cells assessed as cell viability at 100 uM after 70 hrs by WST-8 assay
REPORTED_PROPERTY: viability at 70 h, 100 µM (%)
# value in %; strip the unit string

Value of measured viability at 70 h, 100 µM for the entry COc1cc2c(cc1OC)C(Cc1ccc(O)cc1)N(C)CC2 (racemic) : 82

Value of measured viability at 70 h, 100 µM for the entry COc1c(O)cc2c3c1-c1ccccc1C[C@H]3N(C)CC2 : 82

Value of measured viability at 70 h, 100 µM for the entry CN1CCc2ccccc2C1 : 82

Value of measured viability at 70 h, 100 µM for the entry CN1CCc2ccccc2C1Cc1ccccc1 (centres undefined) : 77

Value of measured viability at 70 h, 100 µM for the entry COc1c(O)cc2c3c(cc4ccccc4c13)N(C)CC2 : 46

Value of measured viability at 70 h, 100 µM for the entry COc1cc2c3c(c1O)-c1ccccc1C[C@H]3N(C)CC2 : 39.7

Value of measured viability at 70 h, 100 µM for the entry COc1cc2ccnc3c2c(c1OC)-c1ccccc1C3=O [LYSICAMINE] : 22.5

Value of measured viability at 70 h, 100 µM for the entry c1ccc2c(c1)CCNC2 [1,2,3,4-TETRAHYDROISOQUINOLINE] : 46

Value of measured viability at 70 h, 100 µM for the entry COc1cc2c3c(c1OC)-c1ccccc1C[C@H]3[N+](C)([O-])CC2 (some centres undefined) : 82

Value of measured viability at 70 h, 100 µM for the entry COc1cc2c3c(c1OC)C1(C=CC(=O)C=C1)C[C@H]3N(C)CC2 [PRONUCIFERINE] : 82

Value of measured viability at 70 h, 100 µM for the entry COc1c(O)cc2c3c1-c1ccccc1C[C@H]3NCC2 [ASIMILOBINE] : 46

Value of measured viability at 70 h, 100 µM for the entry COc1cc2c3c(cc4ccccc4c3c1OC)N(C)CC2 [DEHYDRONUCIFERINE] : 77

Value of measured viability at 70 h, 100 µM for the entry COc1cc2c3c(c1OC)-c1ccccc1C[C@H]3N(C)CC2 [NUCIFERINE] : 46

Value of measured viability at 70 h, 100 µM for the entry COc1cc2c3c(c1OC)-c1ccccc1C[C@H]3NCC2 : 82

* * *

test: Inhibition of melanogenesis in mouse B16-4A5 cells after 72 hrs by spectrophotometry; type: functional, cell-based
The following ranges of IC50 define the classes used here: group A = under 10 µM, group B = from 10 µM up to 50 µM, group C = 50 µM and over

Input line: Which of the defined bands does the recorded IC50 of OC[C@H]1O[C@@H](Oc2ccc(O)cc2)[C@H](O)[C@@H](O)[C@@H]1O sit within?
Output line: group C

Input line: Which of the defined bands does the recorded IC50 of COc1cc2c3c(cc4ccccc4c3c1OC)N(C)CC2 [DEHYDRONUCIFERINE] sit within?
Output line: group C

Input line: Which of the defined bands does the recorded IC50 of COc1cc2c3c(c1)-c1ccccc1CC3N(C)CC2 (stereo not drawn) sit within?
Output line: group A

Input line: Which of the defined bands does the recorded IC50 of COc1c(O)cc2c3c(cc4ccccc4c13)N(C)CC2 sit within?
Output line: group B

Input line: Which of the defined bands does the recorded IC50 of COc1c(O)cc2c3c1-c1ccccc1C[C@@H]3NCC2 sit within?
Output line: group C

Input line: Which of the defined bands does the recorded IC50 of COc1cc2c3c(c1OC)-c1ccccc1C[C@H]3NCC2 sit within?
Output line: group C

Input line: Which of the defined bands does the recorded IC50 of CN1CCc2ccccc2C1Cc1ccccc1 (stereo not drawn) sit within?
Output line: group A

Input line: Which of the defined bands does the recorded IC50 of COc1cc2c3c(c1OC)-c1ccccc1C[C@H]3N(C)CC2 sit within?
Output line: group B

Input line: Which of the defined bands does the recorded IC50 of COc1c(O)cc2c3c1-c1ccccc1C[C@H]3N(C)CC2 sit within?
Output line: group B

Input line: Which of the defined bands does the recorded IC50 of COc1cc2c3c(c1OC)C1(C=CC(=O)C=C1)C[C@H]3N(C)CC2 sit within?
Output line: group B

Input line: Which of the defined bands does the recorded IC50 of COc1cc2c3c(c1OC)-c1ccccc1C[C@H]3[N+](C)([O-])CC2 (stereo partly drawn) sit within?
Output line: group B

Input line: Which of the defined bands does the recorded IC50 of COc1cc2c3c(c1O)-c1ccccc1C[C@H]3N(C)CC2 sit within?
Output line: group B

Input line: Which of the defined bands does the recorded IC50 of COc1cc2c(cc1OC)C(Cc1ccc(O)cc1)N(C)CC2 (racemic) sit within?
Output line: group B

* * *

assay: Inhibition of melanogenesis in mouse B16-4A5 cells at 1 uM after 72 hrs by spectrophotometry; assay type: functional; details: B16-4A5, 72 h
Answer each item with its documented inhibition at 1 µM.
# value in %; strip the unit string

Value of measured inhibition at 1 µM for the entry COc1cc2c3c(c1O)-c1ccccc1C[C@H]3N(C)CC2 : -2.6

Value of measured inhibition at 1 µM for the entry COc1c(O)cc2c3c1-c1ccccc1C[C@@H]3NCC2 : 7.4

Value of measured inhibition at 1 µM for the entry c1ccc2c(c1)CCNC2 [1,2,3,4-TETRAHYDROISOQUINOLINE] : -12.6

Value of measured inhibition at 1 µM for the entry COc1cc2c3c(c1)-c1ccccc1CC3N(C)CC2 (stereo unspecified) : 39.1

Value of measured inhibition at 1 µM for the entry COc1c(O)cc2c3c1-c1ccccc1C[C@H]3N(C)CC2 : 15.4

Value of measured inhibition at 1 µM for the entry COc1cc2ccnc3c2c(c1OC)-c1ccccc1C3=O : 4.8

Value of measured inhibition at 1 µM for the entry COc1cc2c3c(c1OC)-c1ccccc1C[C@H]3N(C)CC2 : 11.5

Value of measured inhibition at 1 µM for the entry CN1CCc2ccccc2C1 : 10.6

Value of measured inhibition at 1 µM for the entry COc1cc2c3c(c1OC)-c1ccccc1C[C@H]3NCC2 : 5.8

Value of measured inhibition at 1 µM for the entry COc1cc2c3c(c1OC)C1(C=CC(=O)C=C1)C[C@H]3N(C)CC2 : 4

Value of measured inhibition at 1 µM for the entry CN1CCc2ccccc2C1Cc1ccccc1 (stereo unspecified) : 24.5
